// reported MIC per item
- System: Streptococcus faecalis 99 F 74
- test: MIC, liquid medium dilution
- Type: cell-based
- assayConditions: Enterococcus faecalis, 99F74, 24 h
Field: numeric (µg/mL). Do not append units.

>  <molecule>
CO/N=C(\C(=O)NC1C(=O)N2C(C(=O)O)=C(C)CSC12)c1csc(N)n1 (centres unmarked) [Example 10]

>  <system>
Streptococcus faecalis 99 F 74

>  <unitOfMeasure>
µg/mL

>  <MIC>
20

$$$$

Prompt line: Send back Streptococcus faecalis 99 F 74 MIC of CO/N=C(\C(=O)NC1C(=O)N2C(C(=O)O)=C(CSC(C)=O)CSC12)c1csc(N)n1 (centres unmarked) [Example 6] only.
Response line: 5

Prompt line: Send back Streptococcus faecalis 99 F 74 MIC of CO/N=C(\C(=O)NC1C(=O)N2C(C(=O)O)=C(CSc3nnnn3C)CS[C@H]12)c1csc(N)n1 (some centres unmarked) [Example 4] only.
Response line: 2
